target: SETD2(1434-1711) (Homo sapiens); construct: SETD2 (1434-1711) Assay; catalogue N/A; test: SETD2 (1434-1711) assay; format: biochemical; conditions: read-out: SETD2 (1434-1711)
ATTRIBUTE_MEASURED: log10(IC50) (log10 of the value in nM)

                                    compound  measured_number
 0  Cc1ccc(F)c2cc(C(=O)Nc3cccc(N4CC5CCN(C)C5C4)c3)[nH]c12 (stereo not shown)             1.00
 1  Cc1ccc(F)c2cc(C(=O)N[C@@H]3CCC[C@H](N4CCC(N5CCCC5=O)C4)C3)[nH]c12 (stereo partly shown)             1.48
 2  Cc1cccc2cc(C(=O)NCC(O)C(F)(F)F)[nH]c12 (stereo not shown)             4.60
 3   Cc1cccc2cc(C(=O)Nc3ccc4ncncc4c3)[nH]c12             2.60
 4  Cc1ccc(F)c2cc(C(=O)Nc3cc(F)cc(N4CCN(C)C(=O)C4)c3)[nH]c12             0.95
 5  Cc1ccc(F)c2cc(C(=O)N[C@@H]3CCCC(N4CCC5(CCNC5=O)CC4)C3)[nH]c12 (stereo partly shown)             2.60
 6  Cc1cc(C(=O)O)cnc1C(NC(=O)c1cc2c(F)ccc(C)c2[nH]1)C1CC1 (stereo not shown)             3.46
 7  Cc1ccc(F)c2cc(C(=O)N[C@@H]3CCC[C@@H](N4CCC(N(C)C(=O)CO)C4)C3)[nH]c12 (stereo partly shown)             3.28
 8  Cc1ccc(F)c2cc(C(=O)Nc3cccc(N4CCN(C(C)C)CC4C)c3)[nH]c12 (stereo not shown)             2.00
 9  Cc1c(NC(=O)c2cc3c(F)ccc(C)c3[nH]2)cccc1N1CCN(C)CC1             2.30
10  CC(=O)N1CCN(c2cccc(NC(=O)c3cc4c(F)ccc(C)c4[nH]3)c2)CC1C(F)(F)F (stereo not shown)             1.78
11  Cc1ccc(F)c2cc(C(=O)N[C@@H]3CCC[C@@H](N4CCn5c(nnc5C(F)(F)F)C4)C3)[nH]c12             3.51
12  Cc1ccc(F)c2cc(C(=O)N[C@@H]3CCC[C@H](N4CCN(C(=O)C5CC5)CC4)C3)[nH]c12             1.60
13  Cc1ccc(F)c2cc(C(=O)Nc3cccc(-c4cc(N)n[nH]4)c3)[nH]c12             2.60
14  Cc1ccc(F)c2cc(C(=O)Nc3cccc(N4CCC(N(C)C)C(C)C4)c3)[nH]c12 (stereo not shown)             1.48
15  Cc1ccc(F)c2cc(C(=O)Nc3nnc(C4CCN(C)CC4)s3)[nH]c12             4.70

---

biological target: SETD2(1434-1711) (Homo sapiens, UniProt Q9BYW2); construct: SETD2 (1434-1711) Assay; catalogue N/A; assay: SETD2 (1434-1711) assay; format: biochemical; conditions: read-out: SETD2 (1434-1711)
Sequence (Q9BYW2 1434-1711): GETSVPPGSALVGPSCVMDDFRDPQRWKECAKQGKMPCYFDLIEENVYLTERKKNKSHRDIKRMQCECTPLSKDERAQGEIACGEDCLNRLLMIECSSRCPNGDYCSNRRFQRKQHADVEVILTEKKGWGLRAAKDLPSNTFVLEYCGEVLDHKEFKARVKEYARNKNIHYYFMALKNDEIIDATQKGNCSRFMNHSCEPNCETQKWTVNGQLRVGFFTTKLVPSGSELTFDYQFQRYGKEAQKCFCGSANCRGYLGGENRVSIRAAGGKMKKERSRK
Collected IC50 values appear next to each entry.
ATTRIBUTE_MEASURED: IC50 (nM)

In [3]: df
Out[3]:
                                   molecule  measured_number
0  Cc1cccc2cc(C(=O)NC(c3cccc4c3NC(=O)C4)C3CC3)[nH]c12 (centres unmarked) [compound 564]            10900
1  Cc1ccc(F)c2cc(C(=O)Nc3cccc(C4CCC(N(C)C)CC4)c3)[nH]c12 (centres unmarked) [compound 343]               80
2  Cc1ccc(F)c2cc(C(=O)NC3CCCC(c4nnc(CN(C)C)o4)C3)[nH]c12 (centres unmarked) [compound 955]              200
3  Cc1ccc(F)c2cc(C(=O)Nc3cccc(N4CCN5C(=O)CCC5C4)c3)[nH]c12 (centres unmarked) [compound 27]               20
4  Cc1cc(CCN2CCN(C)CC2)cnc1C(NC(=O)c1cc2cccc(C)c2[nH]1)C1CC1 (centres unmarked) [compound 435]              700
5  Cc1ccc(F)c2cc(C(=O)N[C@@H]3CCC[C@H](N4CCN5C(=O)N(C)C[C@H]5C4)C3)[nH]c12 [compound 1126]               20
6  Cc1cccc2cc(C(=O)NCc3cn4ccnc4cn3)[nH]c12 [compound 710]            83400
7  Cc1ccc(F)c2cc(C(=O)Nc3cccc(C4CCC5C(CCN5C)C4)c3)[nH]c12 (centres unmarked) [compound 294]               30
